target: T1, AFP158/HLA-A*02:01 complex presented on cells (human); assay: FACS of scFv phage on AFP158 peptide-loaded T2 cells, anti-M13 mAb and R-PE anti-mouse IgG
T1 construct: the cell line used is named under assay in each row; also called AFP158-loaded T2 cells; human AFP158-loaded T2 cells
measured-parameter: binding result

{"binder": "#44 (scFv, V domains shown, not shown: large carriers; small tags and cut ends, also called Clone 44; AFP158/HLA-A*02:01-specific scFv phage clone #44; copies: 1 + 1) VH: QVQLVQSGAEVKKPGSSVKVSCKASGGTFSSYAISWVRQAPGQGLEWMGGIIPIFGTANYAQKFQGRVTITADESTSTAYMELSSLRSEDTAVYYCAREIRGYYYYYGMDVWGQGTTVTVSS VL: SYELTQPPSVSVAPGKTARITCGGDNIGTKSVTWYQQRPGQAPMMVIYYDTVRPSGIPERLSGSNSGNTATLTITRVEAGDEADYYCQVWDSSSDHPVFGGGTKLTVL", "measured-parameter": "binding result", "observed-result": "binds"}
